Tested on: Escherichia coli TOP10
Assay: shrunken log2 fold change of peptide-encoding DNA abundance (4.5 h post-induction vs induction); higher = less antimicrobial activity (less host growth inhibition)
Conditions: time post-induction: 4.5 h; library: site-saturation at positions 5, 18, 19, 20
Answer Not fulfilled if shrunken log2 fold change is under 0.08, and Fulfilled if it is 0.08 or more.

Input: Would you say RRIRHRPPRLPRPRPRPGYRPRP shows shrunken log2 fold change at minimum 0.08?
Output: Not fulfilled

Input: Hi, just wondering whether RRIRERPPRLPRPRPRPFYAPRP shows shrunken log2 fold change of 0.08 or higher.
Output: Not fulfilled

Input: Please check the record RRIRLRPPRLPRPRPRPWLAPRP and state if its shrunken log2 fold change is at or above 0.08.
Output: Not fulfilled

Input: Is reported shrunken log2 fold change greater than or equal to 0.08 here: RRIRLRPPRLPRPRPRPHYDPRP
Output: Not fulfilled

Input: Please check the record RRIRERPPRLPRPRPRPKQNPRP and state if its shrunken log2 fold change is at or above 0.08.
Output: Not fulfilled

Input: shrunken log2 fold change >= 0.08 for RRIRSRPPRLPRPRPRPVAQPRP ?
Output: Fulfilled

Input: Is reported shrunken log2 fold change greater than or equal to 0.08 here: RRIRRRPPRLPRPRPRPRGSPRP
Output: Fulfilled

Input: Confirm if shrunken log2 fold change reported for the sequence RRIRERPPRLPRPRPRPIPVPRP is 0.08 or above.
Output: Not fulfilled

Input: Check if shrunken log2 fold change >= 0.08 (inclusive). Item: RRIRGRPPRLPRPRPRPVSEPRP
Output: Fulfilled

Input: Hello, I need to know if RRIRPRPPRLPRPRPRPAYMPRP has measured shrunken log2 fold change not below 0.08. Thanks!
Output: Not fulfilled

Input: Confirm if shrunken log2 fold change reported for the sequence RRIRARPPRLPRPRPRPRWMPRP is 0.08 or above.
Output: Fulfilled

Input: Hello, I need to know if RRIRLRPPRLPRPRPRPVRMPRP has measured shrunken log2 fold change not below 0.08. Thanks!
Output: Fulfilled

Input: Assess whether reported shrunken log2 fold change for RRIRYRPPRLPRPRPRPGVLPRP sits at 0.08 or higher.
Output: Not fulfilled

Input: Is shrunken log2 fold change for RRIRCRPPRLPRPRPRPQGAPRP at or above 0.08?
Output: Not fulfilled

Input: Please tell me: is the sequence RRIRYRPPRLPRPRPRPSSHPRP at or over 0.08 in terms of shrunken log2 fold change?
Output: Not fulfilled

Input: Form field: shrunken log2 fold change at least 0.08? Entry: RRIRARPPRLPRPRPRPLTEPRP
Output: Fulfilled

---

Test system: Escherichia coli TOP10;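 note: peptides expressed intracellularly from a pBAD plasmid library in pooled LB shake-flask culture, induced with 0.3% L-arabinose, DNA abundance read by NGS, three biological replicates, DESeq2 with apeglm shrinkage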
Assay: shrunken log2 fold change of peptide-encoding DNA abundance (4.5 h post-induction vs induction); higher = less antimicrobial activity (less host growth inhibition)
Details: time post-induction: 4.5 h; library: site-saturation at positions 5, 18, 19, 20
Entries get a class label from measured shrunken log2 fold change. See ranges: lower level (below -0.03), middle level (-0.03 to below 0.1), upper level (0.1 or more)

Input: Record RRIRQRPPRLPRPRPRPSDAPRP — which class?
Output: upper level

Input: Please let me know in which category the item RRIRPRPPRLPRPRPRPWWNPRP belongs.
Output: lower level

Input: Lab note: which band did RRIRARPPRLPRPRPRPQEIPRP land in?
Output: upper level

Input: Kindly state the category for this sequence: RRIRHRPPRLPRPRPRPHNPPRP
Output: lower level

Input: For RRIRERPPRLPRPRPRPLYMPRP , which shrunken log2 fold change bin applies?
Output: lower level

Input: Which class does RRIRHRPPRLPRPRPRPCDIPRP fall in?
Output: middle level

Input: Hello team, could you let me know which band the following sequence falls into: RRIRGRPPRLPRPRPRPFHWPRP
Output: upper level

Input: Input RRIRRRPPRLPRPRPRPFWEPRP ; output its category
Output: lower level

Input: Would you mind sorting RRIRPRPPRLPRPRPRPVCVPRP into the appropriate category?
Output: upper level

Input: Hi there! Could you help me figure out the category for RRIRSRPPRLPRPRPRPDLWPRP please?
Output: upper level

Input: Sort RRIRKRPPRLPRPRPRPGGNPRP into one of the categories.
Output: middle level

Input: Assign a category based on measured shrunken log2 fold change for RRIRARPPRLPRPRPRPENKPRP and give only the class name.
Output: upper level

Input: Pick a category. Item: RRIRGRPPRLPRPRPRPAKTPRP
Output: upper level

Input: Kindly identify the class of RRIRWRPPRLPRPRPRPIFGPRP .
Output: middle level
